The entries below come with measured Ki values attached.
# STUDY SYSTEM: 5-hydroxytryptamine receptor 1B (Homo sapiens, UniProt P28222)
# Sequence (P28222 whole entry): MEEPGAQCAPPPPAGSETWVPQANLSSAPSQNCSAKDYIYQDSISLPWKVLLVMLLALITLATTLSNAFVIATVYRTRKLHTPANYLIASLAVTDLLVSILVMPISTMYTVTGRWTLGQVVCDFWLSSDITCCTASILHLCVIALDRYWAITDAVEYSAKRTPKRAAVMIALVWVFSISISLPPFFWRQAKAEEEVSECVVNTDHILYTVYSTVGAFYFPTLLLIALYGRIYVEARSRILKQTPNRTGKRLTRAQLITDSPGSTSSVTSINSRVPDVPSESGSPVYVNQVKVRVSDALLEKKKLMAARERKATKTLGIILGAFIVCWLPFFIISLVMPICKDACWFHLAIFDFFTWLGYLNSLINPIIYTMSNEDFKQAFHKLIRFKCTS

Exam item: Checklist item: Ki tested on 5-hydroxytryptamine receptor 1B (Homo sapiens, UniProt P28222), entry "Cc1[nH]c2ccc(NC(=O)c3ccc(F)cc3)cc2c1CCN(C)C" , value?
Marked response: > 260 nM

Exam item: Also need "CCC(=O)Nc1ccc2[nH]cc(C3CCN(C)CC3)c2n1" , thanks.
Marked response: > 300 nM

Exam item: Also need "CN1CCC(C(=O)c2cccc(NC(=O)c3c(F)cc(F)cc3F)n2)CC1" , thanks.
Marked response: > 591 nM

---

# STUDY SYSTEM: 5-hydroxytryptamine receptor 2A (Homo sapiens, UniProt P28223)
# Sequence (P28223 whole entry): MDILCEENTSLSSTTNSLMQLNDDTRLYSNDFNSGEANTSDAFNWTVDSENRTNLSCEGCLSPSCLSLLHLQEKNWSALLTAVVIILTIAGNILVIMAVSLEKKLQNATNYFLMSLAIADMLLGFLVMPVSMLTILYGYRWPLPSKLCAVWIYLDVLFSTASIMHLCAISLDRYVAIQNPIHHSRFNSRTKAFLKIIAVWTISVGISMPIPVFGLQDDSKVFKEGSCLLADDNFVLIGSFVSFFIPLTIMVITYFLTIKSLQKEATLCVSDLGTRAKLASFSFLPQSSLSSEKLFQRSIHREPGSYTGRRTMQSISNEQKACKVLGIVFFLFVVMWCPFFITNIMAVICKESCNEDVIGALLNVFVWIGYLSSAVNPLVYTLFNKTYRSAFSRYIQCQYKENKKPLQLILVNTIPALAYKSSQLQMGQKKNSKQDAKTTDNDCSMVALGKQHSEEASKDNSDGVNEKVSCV
# MEASUREMENT PROTOCOL: Binding affinity to human recombinant 5-HT2A assessed as inhibition constant
PROPERTY MEASURED: Ki (nM)
Entry rule: numbers only, all in nM.

Exam item: Reported Ki, molecule "[11CH3]N1CCN(c2cccc3cc(S(=O)(=O)c4cccc(F)c4)cnc23)CC1" : ____
Marked response: 0.16

---

Observed Ki values for 5-hydroxytryptamine receptor 1A (Homo sapiens, UniProt P08908) are listed in what follows.

In [3]: df
Out[3]:
                  compound_structure_string                              study_system  measurement
0     CCC(=O)Nc1ccc2[nH]cc(C3CCN(C)CC3)c2n1  5-hydroxytryptamine receptor 1A (Homo sapiens, UniProt P08908)     > 300 nM
1  CN1CCC(C(=O)c2cccc(NC(=O)c3c(F)cc(F)cc3F)n2)CC1  5-hydroxytryptamine receptor 1A (Homo sapiens, UniProt P08908)     > 590 nM
2  Cc1[nH]c2ccc(NC(=O)c3ccc(F)cc3)cc2c1CCN(C)C  5-hydroxytryptamine receptor 1A (Homo sapiens, UniProt P08908)     > 260 nM

Exam item: Reported Ki, compound "CC(=O)Nc1ccc2[nH]cc(C3CCN(C)CC3)c2n1" : ____
Marked response: > 240 nM

Exam item: Also need "CN(C)[C@@H]1CCc2[nH]c3ccc(NC(=O)c4ccc(F)cc4)cc3c2C1" , thanks.
Marked response: > 500 nM

---

# MEASUREMENT PROTOCOL: Binding affinity to pig 5-HT1B receptor (unknown origin) assessed as inhibition constant
PROPERTY MEASURED: pKi
Scale: negative log10 of molar concentration, which is what pKi denotes.

Worked cases, answers included:
In [3]: df
Out[3]:
                                   compound  property_measured  measurement
0  [11CH3]N1CCN(c2cccc3c2OC(C(=O)Nc2ccc(N4CCOCC4)cc2)CC3)CC1 (racemic)                pKi         9.40
1  CN1CCN(c2cc(F)cc3c(=O)cc(C(=O)Nc4ccc(N5CCOCC5)c(F)c4)oc23)CC1                pKi         9.89
2  CCC(=O)N1CCN(c2ccc(NC(=O)c3cc(=O)c4cc(F)cc(N5CCN([11CH3])CC5)c4o3)cc2)CC1                pKi         8.70
3  Cc1ccc(N2CCN([11CH3])CC2)c2nc(C(=O)Nc3ccc(N4CCOCC4)cc3)ccc12                pKi         9.70
4  CN1CCN(c2cccc3c2C[C@H](NC(=O)c2ccc(OS(C)(=O)=O)cc2)CC3)CC1                pKi         9.60
5  COC(=O)N1CCN(c2ccc(NC(=O)C3CCc4cc(F)cc(N5CCN([11CH3])CC5)c4O3)cc2)CC1 (centres undefined)                pKi         9.30
6  CN1CCN(c2cccc3c2C[C@@H](NC(=O)c2ccc(N4CCOCC4)cc2)CC3)CC1                pKi         9.34
7  [11CH3]N1CCN(c2cccc3c2O[C@@H](C(=O)Nc2ccc(N4CCOCC4)cc2)CC3)CC1                pKi         9.52

Shifting focus to the compound that follows.
Exam item: Reported pKi, compound "[11CH3]N1CCN(c2cccc3c2O[C@H](C(=O)Nc2ccc(N4CCOCC4)cc2)CC3)CC1" : ____
Marked response: 9.22
